The sequences listed here are annotated with their shrunken log2 fold change.
Test system: Escherichia coli TOP10;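 also: peptides expressed intracellularly from a pBAD plasmid library in pooled LB shake-flask culture, induced with 0.3% L-arabinose, DNA abundance read by NGS, three biological replicates, DESeq2 with apeglm shrinkage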
ASSAY_INFO: shrunken log2 fold change of peptide-encoding DNA abundance (4.5 h post-induction vs induction); higher = less antimicrobial activity (less host growth inhibition)
TEST_CONDITIONS: time post-induction: 4.5 h; library: site-saturation at positions 5, 18, 19, 20
// no unit string in output, number only

// solved cases for shrunken log2 fold change follow
RRIRCRPPRLPRPRPRPSSFPRP = -0.0694
RRIRIRPPRLPRPRPRPVNWPRP = -0.229
RRIRFRPPRLPRPRPRPCALPRP = -0.554
RRIRVRPPRLPRPRPRPATNPRP = -0.301
RRIRTRPPRLPRPRPRPYGRPRP = -0.27

State its shrunken log2 fold change: RRIRGRPPRLPRPRPRPATRPRP
0.94

Give reported shrunken log2 fold change value for RRIRSRPPRLPRPRPRPNWQPRP
0.0694

Give the reported value of shrunken log2 fold change for this record: RRIRPRPPRLPRPRPRPLWWPRP
0.649

# credit: the supplement of paper PMC9112550
